- Test system: 786-0 renal
- experimental-details: NCI tumour cell line growth inhibition, 48 h

>  <compound>
O=C(Nc1cc(Cl)ccc1Cl)c1cc2cccc(Br)c2oc1=O

>  <TGI>
> 100 µM

$$$$
>  <compound>
C=C1C2C[C@@H]3OC4CC5O[C@]6(CC5OC4C(C)C3OC(=O)CC3CC[C@@H]4OC5C7OC8C[C@](CCC9CC(=C)[C@H](CCC(C[C@H]1C)O2)O9)(OC7C4O3)O[C@@H]85)C[C@@H]1O[C@@]2(CC(C)[C@@H]3OC(CC(=O)CCO)C(O)C[C@@H]3O2)CC(C)[C@@H]1O6 (stereo partly drawn)

>  <TGI>
1.09 µM

$$$$
>  <compound>
O=C1OCC(c2ccc(O)cc2)=C1c1cc(O)c(O)c(O)c1

>  <TGI>
> 100 µM

$$$$

* * *

- Test system: MDA-MB-435
- experimental-details: NCI tumour cell line growth inhibition, 48 h

>  <compound>
O=C(O)C(Br)C(Br)C(=O)O (centres undefined)

>  <limit-sign>
>

>  <TGI [µM]>
100

$$$$
>  <compound>
N#C/C=c1/c2ccccc2n2nc3ccccc3c12

>  <limit-sign>
>

>  <TGI [µM]>
100

$$$$
>  <compound>
COc1ccc(C(=O)c2c(-c3ccccc3NC(=O)C(F)(F)F)[nH]c3ccccc23)cc1

>  <limit-sign>
=

>  <TGI [µM]>
25.5

$$$$
>  <compound>
C/C(=N/NC(=S)Nc1cccc(Cl)c1)c1ccccn1

>  <limit-sign>
=

>  <TGI [µM]>
15.4

$$$$
>  <compound>
COc1ccc(OC)c(NC2=NCCO2)c1

>  <limit-sign>
>

>  <TGI [µM]>
100

$$$$
>  <compound>
CCCCC[C@H]1CC=C2C(=O)C=C[C@@H]2CC=CCCCC(=O)O[C@@H](CCCCC)CC=C2C(=O)C=C[C@@H]2CC=CCCCC(=O)O[C@@H](CCCCC)CC=C2C(=O)C=C[C@@H]2CC=CCCCC(=O)O1

>  <limit-sign>
=

>  <TGI [µM]>
0.526

$$$$
>  <compound>
C=CCNc1nc(O)c(/C=C2\C=Nc3ncccc32)s1

>  <limit-sign>
=

>  <TGI [µM]>
4.96

$$$$
>  <compound>
c1cc(CN2CCCNCCNCCCNCC2)ccc1CN1CCCNCCNCCCNCC1

>  <limit-sign>
>

>  <TGI [µM]>
100

$$$$
>  <compound>
Oc1cc(O)c2c(c1)O[C@H](c1cc(O)c(O)c(O)c1)[C@@H](O)C2

>  <limit-sign>
=

>  <TGI [µM]>
38.1

$$$$

* * *

- Test system: SW-620 colon
- experimental-details: NCI tumour cell line growth inhibition, 48 h; in the data active means GI50 below about 0.43 µM; inactive means the rest
Outcome codes: active, inactive

>  <compound>
COc1cccc(Sc2ccc([N+](=O)[O-])c3no[n+]([O-])c23)c1

>  <label-value>
inactive

$$$$
>  <compound>
CN(C)C[C@H]1CCn2c(c(C3=C(c4cn(C)c5ccccc45)C(=O)NC3=O)c3ccccc32)C1

>  <label-value>
inactive

$$$$
>  <compound>
c1cc(CN2CCCNCCNCCCNCC2)ccc1CN1CCCNCCNCCCNCC1

>  <label-value>
inactive

$$$$
>  <compound>
O=c1cc(-c2ccccc2)oc2ccc(OC/C(=N/O)c3ccc(F)cc3)cc12

>  <label-value>
inactive

$$$$
>  <compound>
CC(C)=O.O=C([O-])C(F)(F)F.O=C([O-])C(F)(F)F.O=C([O-])C(F)(F)F.O=C([O-])C(F)(F)F.[Rh+2].[Rh+2]

>  <label-value>
inactive

$$$$
>  <compound>
C[C@]12CC[C@@H]3c4ccc(O)cc4CC[C@H]3[C@@H]1CC[C@@H]2NS(=O)(=O)c1cccc(Cl)c1

>  <label-value>
inactive

$$$$
>  <compound>
O=C(O)/C=C/c1ccc[c]([Sb](=[O])([OH])[OH])c1

>  <label-value>
inactive

$$$$
>  <compound>
COc1ccc(C(C#N)=C2C=CC(=NO)C=C2)cc1

>  <label-value>
inactive

$$$$
>  <compound>
CCCCNCCC(O)c1cc2ccc(C(F)(F)F)cc2c2cc(C(F)(F)F)ccc12 (stereo unspecified)

>  <label-value>
inactive

$$$$
>  <compound>
Cc1cc(C(=O)Nc2cc(Oc3ccc4nc(NC(=O)C5CC5)cn4n3)ccc2C)n(C)n1

>  <label-value>
inactive

$$$$
>  <compound>
COc1cccc(-n2ncc3c(N/N=C/c4ccc(C)cc4)ncnc32)c1

>  <label-value>
inactive

$$$$
>  <compound>
CCC[CH2][Sn]([CH2]CCC)([CH2]CCC)[O]C(=O)C(OC(C)=O)c1ccccc1 (stereo unspecified)

>  <label-value>
active

$$$$
>  <compound>
O=C1CSC(c2ccc(-c3nc4ccccc4[nH]3)cc2)=N1

>  <label-value>
inactive

$$$$
>  <compound>
CC(=O)O[C@@]12CO[C@@H]1C[C@H](O)[C@@]1(C)C(=O)[C@H](O)C3=C(C)[C@@H](OC(=O)[C@H](O)[C@@H](NC(=O)OC(C)(C)C)c4ccccc4)C[C@@](O)([C@@H](OC(=O)c4ccccc4)C12)C3(C)C (stereo partly specified)

>  <label-value>
active

$$$$
>  <compound>
O=C1NCN(c2ccccc2)C12CCN(CCCC(c1ccc(F)cc1)c1ccc(F)cc1)CC2

>  <label-value>
inactive

$$$$
>  <compound>
COc1cccc(OC(=O)c2ccc(C(F)(F)F)nc2Nc2c(C)cccc2Cl)c1

>  <label-value>
inactive

$$$$

* * *

Each entry below lists one item and its recorded TGI value.
- System: OVCAR-5 ovarian
- experimental-details: NCI tumour cell line growth inhibition, 48 h

>  <compound>
CCO/C(CCn1[nH]c(=O)c(Cl)c(Cl)c1=O)=N\NC(=O)C(=O)NN

>  <TGI>
> 100 µM

$$$$
>  <compound>
CCn1c(-c2c(Cl)cc(O)cc2Cl)cc2c(Cl)cc(O)cc21

>  <TGI>
65 µM

$$$$
>  <compound>
CN(C)c1ccc(C(=N)c2ccc(N(C)C)cc2)cc1

>  <TGI>
> 100 µM

$$$$
>  <compound>
NC(=S)Nc1ccc2c(c1)oc1ccccc12

>  <TGI>
> 100 µM

$$$$
>  <compound>
CCNc1cc2oc(=O)cc(C(F)(F)F)c2cc1C

>  <TGI>
> 100 µM

$$$$
>  <compound>
COc1ccc(OC)c(NC(=O)c2cccc(NC3=C(Cl)C(=O)N(Cc4ccccc4)C3=O)c2)c1

>  <TGI>
> 100 µM

$$$$
>  <compound>
O=C(NC12CC3CC(CC(C3)C1)C2)C(=O)c1c[nH]c2ccc(Br)cc12

>  <TGI>
> 100 µM

$$$$
>  <compound>
COc1cc2c3c(n(CCCCNC(=O)OC(C)(C)C)c(=O)c2cc1OC)-c1cc2c(cc1C3=O)OCO2

>  <TGI>
> 100 µM

$$$$
>  <compound>
Cc1ccc(NC(=O)C(=O)C(C(=O)c2ccc3ccccc3c2)C2OC(=O)c3ccccc32)c(C)c1 (stereo not given)

>  <TGI>
36.5 µM

$$$$
>  <compound>
O=C1Nc2ccccc2/C1=C\c1cccc(/C=C2/C(=O)Nc3ccccc32)n1

>  <TGI>
2.4 µM

$$$$

* * *

- System: NCI-H23 lung
- experimental-details: NCI tumour cell line growth inhibition, 48 h
Each entry below lists one item and its recorded GI50 value.
parameter: GI50

>  <compound-structure-string>
c1cc(CN2CCCNCCNCCCNCC2)ccc1CN1CCCNCCNCCCNCC1

>  <assayed-target>
NCI-H23 lung

>  <parameter>
GI50

>  <result>
> 100000 nM

$$$$
>  <compound-structure-string>
CCCCCCCCCCCC[N+](C)(C)Cc1ccccc1

>  <assayed-target>
NCI-H23 lung

>  <parameter>
GI50

>  <result>
2500 nM

$$$$
>  <compound-structure-string>
CC(C)=O.O=C([O-])C(F)(F)F.O=C([O-])C(F)(F)F.O=C([O-])C(F)(F)F.O=C([O-])C(F)(F)F.[Rh+2].[Rh+2]

>  <assayed-target>
NCI-H23 lung

>  <parameter>
GI50

>  <result>
46700 nM

$$$$
>  <compound-structure-string>
C[C@]12CC[C@@H]3c4ccc(O)cc4CC[C@H]3[C@@H]1CC[C@@H]2NS(=O)(=O)c1cccc(Cl)c1

>  <assayed-target>
NCI-H23 lung

>  <parameter>
GI50

>  <result>
2720 nM

$$$$
>  <compound-structure-string>
CCN(CC)CCCOc1ccc2ncnc(Nc3ccc(Oc4cccc(C(F)(F)F)c4)c(Cl)c3)c2c1

>  <assayed-target>
NCI-H23 lung

>  <parameter>
GI50

>  <result>
1560 nM

$$$$
>  <compound-structure-string>
O=c1cc(-c2ccccc2)oc2ccc(OC/C(=N/O)c3ccc(F)cc3)cc12

>  <assayed-target>
NCI-H23 lung

>  <parameter>
GI50

>  <result>
5430 nM

$$$$
